target: C3a receptor (C3aR) (Homo sapiens, UniProt Q16581); construct: peripheral blood mononuclear cells were isolated from buffy coat (obtained from Australian Red Cross Blood Service, Kelvin Grove); endogenous in cells; host or cells: primary human monocyte-derived macrophages (HMDM) differentiated from CD14+ monocytes of donor buffy coat; test: Competitive binding with [^125I]-C3a in HMDM; details: Table 6; competitive binding with [^125I]-C3a, HMDM; read-out: IC50 (converted)
Sequence (Q16581 whole entry): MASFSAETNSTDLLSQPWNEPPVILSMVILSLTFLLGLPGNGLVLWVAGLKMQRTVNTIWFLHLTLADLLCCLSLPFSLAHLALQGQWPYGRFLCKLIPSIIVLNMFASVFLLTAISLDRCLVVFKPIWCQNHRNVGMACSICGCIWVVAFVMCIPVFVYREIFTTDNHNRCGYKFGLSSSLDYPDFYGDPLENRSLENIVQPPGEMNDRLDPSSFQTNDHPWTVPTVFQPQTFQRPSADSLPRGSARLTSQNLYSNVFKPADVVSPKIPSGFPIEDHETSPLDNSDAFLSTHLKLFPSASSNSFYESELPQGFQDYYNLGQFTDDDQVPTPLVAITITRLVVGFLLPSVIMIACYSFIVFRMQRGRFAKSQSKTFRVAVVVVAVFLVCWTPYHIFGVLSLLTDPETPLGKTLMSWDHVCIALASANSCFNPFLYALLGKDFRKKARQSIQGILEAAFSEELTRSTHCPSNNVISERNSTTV
Value Kind: IC50 (nM)

The examples below pair each entry with its known result.
[
  {
    "Compound": "CC(C)C[C@H](NC(=O)[C@@H](C)c1ccc(N2Cc3ccccc3C2=O)cc1)c1nc(C(=O)N[C@@H](CCCNC(=N)N)C(=O)O)co1",
    "Endpoint Value": 451
  },
  {
    "Compound": "CC(C)C[C@H](NC(=O)OC(C)(C)C)c1nc(C(=O)N[C@@H](CCCNC(=N)N[N+](=O)[O-])C(=O)O)co1",
    "Endpoint Value": 129
  },
  {
    "Compound": "CC[C@H](C)[C@H](NC(=O)c1ccc(OC)cc1OC)c1nc(C(=O)N[C@@H](CCCNC(=N)N)C(=O)O)co1",
    "Endpoint Value": 872
  },
  {
    "Compound": "CC[C@H](C)[C@H](NC(=O)C1CCCc2ccccc21)c1nc(C(=O)N[C@@H](CCCNC(=N)N)C(=O)O)co1 (stereo partly drawn)",
    "Endpoint Value": 104
  },
  {
    "Compound": "CC(C)C[C@H](NC(=O)OC(C)(C)C)c1nnc(C(=O)N[C@@H](CCCNC(=N)N)C(=O)O)o1",
    "Endpoint Value": 1220
  }
]

1: CC(C)(C)OC(=O)N[C@@H](CC1CCCCC1)c1nc(C(=O)N[C@@H](CCCNC(=N)N)C(=O)O)co1
2: CC[C@H](C)[C@H](NC(=O)c1ccc(C(=O)c2ccccc2)cc1)c1nc(C(=O)N[C@@H](CCCNC(=N)N)C(=O)O)co1
3: N#CN=C(N)NCCC[C@H](NC(=O)c1ccc(C(c2ccccc2)c2ccccc2)s1)C(=O)O
4: Cc1nc(C(c2ccccc2)c2ccccc2)sc1C(=O)N[C@@H](CCCNC(=N)N)C(=O)O
Request: Arrange these compounds by their IC50, starting with the largest number. Returns: the labels arranged in the requested order.
Response: 3, 2, 1, 4
(3: 853 nM, 2: 157 nM, 1: 82 nM, 4: 38 nM)

a: CC[C@H](C)[C@H](NC(=O)c1ccc(N(C)C)cc1)c1nc(C(=O)N[C@@H](CCCNC(=N)N)C(=O)O)co1
b: Cc1[nH]c([C@H](CC(C)C)NC(=O)OC(C)(C)C)nc1C(=O)N[C@@H](CCCNC(=N)N)C(=O)O
Request: Larger number for IC50: a , or b ? Answer by stating the label of the chosen item.
Response: a

P: CC[C@H](C)[C@H](NC(=O)c1cccc(OC)c1OC)c1nc(C(=O)N[C@@H](CCCNC(=N)N)C(=O)O)co1
Q: CC(C)C[C@H](NC(=O)OC(C)(C)C)c1nc(C(=O)N[C@@H](CCCN/C(N)=N\C#N)C(=O)O)co1
Request: Larger number for IC50: P , or Q ? Answer by stating the label of the chosen item.
Response: P
(P: 712 nM, Q: 41 nM)
